Source: PubChem BioAssay AID276

Reported T/C values are given for each entry in this list.
# Test system: B6C3F1 mice, Lewis lung carcinoma iv, survival T/C
# PROTOCOL_NOTES: NCI In Vivo Anticancer Drug Screen. Data for tumor model Lewis Lung Carcinoma (intravenous) in B6C3F1 mice
# STUDY_CONDITIONS: endpoint: median survival time; dose: 25.0 mg/kg/injection; schedule: Q01DX009 (ip); vehicle: saline; higher = longer survival
Toxic doses and inconclusive results are not listed.

The examples below pair each entry with its known result.
# MOLECULE, T/C
records = [
    ("C=C(C(=O)O)C(N)C(=O)O (configuration not stated)", "95 % of control"),
    ("c1cc2n(n1)CCN2", "107 % of control"),
    ("O=N[O-].O=N[O-].O=N[O-].[Co+3].[NH-]CC[N-]CC[NH-]", "117 % of control"),
    ("COC(=O)Nc1nc2ccc(C3(c4ccc(F)cc4)OCCO3)cc2[nH]1", "117 % of control"),
]

Summary line: NC(Cn1ccc(=O)c(O)c1)C(=O)O (configuration not stated) , B6C3F1 mice, Lewis lung carcinoma iv, survival T/C, reported T/C = 98 % of control

I looked up CCCCCC[C@@H](O)C/C=C\CCCCCCCC(=O)OCCO and its T/C for B6C3F1 mice, Lewis lung carcinoma iv, survival T/C was 91 % of control

# Cn1cnc([N+](=O)[O-])c1Sc1ncn[nH]1 with B6C3F1 mice, Lewis lung carcinoma iv, survival T/C: T/C is 111 % of control

---

# Test system: B6C3F1 mice, Lewis lung carcinoma iv, survival T/C
# PROTOCOL_NOTES: NCI In Vivo Anticancer Drug Screen. Data for tumor model Lewis Lung Carcinoma (intravenous) in B6C3F1 mice
# STUDY_CONDITIONS: endpoint: median survival time; dose: 1.0 mg/kg/injection; schedule: Q01DX009 (ip); vehicle: saline with Tween-80; higher = longer survival
Inconclusive results and toxic doses are left out.
MEASUREMENT_NAME: T/C

Recorded results for 5 molecules are shown here.
# MOLECULE, EXPERIMENTAL_RESULT
records = [
    ("CC1=CC2C(O)(CC(CO)=CC3C4C(C)(C)C4(OC(=O)c4ccccc4)C(OC(=O)c4ccccc4)C(C)C32O)C1=O (stereo unspecified)", "108 % of control"),
    ("CC1=C[S+](c2ccccc2)c2cccc3cc4ccccc4c1c23 (stereo unspecified)", "100 % of control"),
    ("O=NN(CCCl)C(=O)NC1CCC(=O)NC1=O (stereo unspecified)", "113 % of control"),
    ("CN(C)CCN1C(=O)c2cccc3cc(N)cc(c23)C1=O", "115 % of control"),
    ("NC(Cc1ccc(N(CCCl)CCCl)cc1)C(=O)O (stereo unspecified)", "98 % of control"),
]

Attention now shifts to the item below.
T/C reading for COc1ccc(CC2C(=O)NC(C)C(=O)N(C)C3Cc4ccc(cc4)Oc4cc(ccc4O)CC(C(=O)NC(C)C(=O)NC(C)C(=O)N2C)N(C)C3=O)cc1 (stereo unspecified) : 106 % of control

---

Parameter T/C: see the listing below.
# System: B6C3F1 mice, Lewis lung carcinoma iv, survival T/C
# PROTOCOL_NOTES: NCI In Vivo Anticancer Drug Screen. Data for tumor model Lewis Lung Carcinoma (intravenous) in B6C3F1 mice
# STUDY_CONDITIONS: endpoint: median survival time; dose: 0.25 mg/kg/injection; schedule: Q01DX009 (ip); vehicle: saline with Tween-80; higher = longer survival
Toxic doses and inconclusive results are not listed.

// worked examples, T/C included
# COMPOUND, T/C
rows = [
    ("COc1cc2c(c(OC)c1OC)-c1ccc(OC)c(=O)cc1[C@@H](NC(=O)CCl)CC2", "106 % of control"),
    ("CC1=C[S+](c2ccccc2)c2cccc3cc4ccccc4c1c23 (centres undefined)", "113 % of control"),
]

The compound listed as COc1ccc(CC2C(=O)NC(C)C(=O)N(C)C3Cc4ccc(cc4)Oc4cc(ccc4O)CC(C(=O)NC(C)C(=O)NC(C)C(=O)N2C)N(C)C3=O)cc1 (centres undefined) has a reported T/C of 110 % of control

Record CC1=CC2C(O)(CC(CO)=CC3C4C(C)(C)C4(OC(=O)c4ccccc4)C(OC(=O)c4ccccc4)C(C)C32O)C1=O (centres undefined) . Reported T/C: 107 % of control
